# measured.on: Dual specificity protein kinase CLK4 (Homo sapiens) (UniProt Q9HAZ1)
# Sequence (Q9HAZ1 whole entry, looked up): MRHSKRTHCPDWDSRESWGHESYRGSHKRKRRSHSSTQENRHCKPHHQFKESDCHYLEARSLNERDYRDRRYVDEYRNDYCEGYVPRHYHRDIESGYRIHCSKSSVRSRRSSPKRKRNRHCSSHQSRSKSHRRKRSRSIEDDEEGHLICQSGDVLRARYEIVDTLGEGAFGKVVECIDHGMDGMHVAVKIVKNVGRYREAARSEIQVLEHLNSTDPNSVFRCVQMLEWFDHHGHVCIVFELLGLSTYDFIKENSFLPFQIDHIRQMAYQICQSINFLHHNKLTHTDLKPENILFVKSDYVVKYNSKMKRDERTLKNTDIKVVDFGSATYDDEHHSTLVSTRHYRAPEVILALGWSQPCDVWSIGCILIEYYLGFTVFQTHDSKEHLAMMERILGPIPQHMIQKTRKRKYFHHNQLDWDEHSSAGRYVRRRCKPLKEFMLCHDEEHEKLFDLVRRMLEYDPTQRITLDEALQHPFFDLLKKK
# protocol: qHTS Assay for Inhibitors of CDC-like Kinase 4 (Kinase-Glo Assay) (AID 1770); also: nearly all actives have a fitted effect of over 65% in size
# test.parameters: recombinant Clk4, Kinase-Glo ATP depletion luminescence; series mostly up to 66.7 µM
Results filed as inconclusive are left out. Activity calls are given as the source filed them. Calls follow the shape of the dose curve; as a rule, active = well fitted inhibition curve with a large enough effect; inconclusive = small, poorly fitted or top-dose-only effect; inactive = flat fitted curve, though single readings scatter.
Outcomes: YES (active), NO (inactive)

>  <structure.smiles>
COc1cccc(Cn2c(=O)c(-c3cc(F)cc(F)c3)nc3cnc(N(C)C)nc32)c1

>  <label.class>
NO

$$$$
>  <structure.smiles>
Cc1noc(C)c1-c1ccc2ncnc(N(C)C)c2c1

>  <label.class>
YES

$$$$
>  <structure.smiles>
CN1CCN(c2ncc3nc(-c4ccc(F)cc4)c(=O)n(Cc4cccs4)c3n2)CC1

>  <label.class>
NO

$$$$
>  <structure.smiles>
COc1cccc(Nc2ncc3ncc(=O)n(CCc4ccccc4)c3n2)c1

>  <label.class>
YES

$$$$
>  <structure.smiles>
CN(C)C(=O)c1ccc(-c2cc(-n3ccnc3)ncn2)cc1

>  <label.class>
YES

$$$$
>  <structure.smiles>
O=c1c(-c2cccs2)nc2cnc(N3CCOCC3)nc2n1-c1ccccc1

>  <label.class>
NO

$$$$
>  <structure.smiles>
O=c1cnc2cnc(Nc3ccccc3)nc2n1C1CC1

>  <label.class>
YES

$$$$
>  <structure.smiles>
CN(C)C(=O)c1ccc(-c2cc(NCc3cccnc3)ncn2)cc1

>  <label.class>
YES

$$$$
>  <structure.smiles>
COc1cccc(-c2cc(N(C)Cc3ccco3)ncn2)c1

>  <label.class>
YES

$$$$
>  <structure.smiles>
CN1CCN(c2nc(-c3ccc4c(c3)OCO4)nc3ccccc23)CC1

>  <label.class>
YES

$$$$
>  <structure.smiles>
COc1ccc(-c2nc3cnc(Nc4cccc(OC)c4)nc3n(C[C@H]3CCCO3)c2=O)cc1

>  <label.class>
NO

$$$$

The reported numbers originate from PubChem BioAssay (NCATS).
